# TEST_TARGET: Bcl-2 protein (Recombinant Human Bcl-2 Protein) (Homo sapiens)
# Construct: purchased Novus Biologicals NBP2-34889
# ASSAY_SUMMARY: AS-MS evaluation of binding of the Example 4 mixture library (1200 compounds/well) to Bcl-2, ASMS ratio (%)
# DETAILS: AS-MS, Example 4 mixture library, Bcl-2, replicate n = 1
Consider the following compounds; for each one, report its ASMS ratio (%) n = 1.
Response body: numeric value in %, unit text excluded.

Lookup: Can you share its ASMS ratio (%) n = 1? I mean this compound: CCOc1cncc(-c2cc(CN3CCN(c4ccc(C(=O)NS(=O)(=O)c5ccc(NCCSc6ccccc6)c(C(F)(F)F)c5)cc4)CC3)cc(OC(F)(F)F)c2)c1 [Compound B2R064-01]
Found: 4.2

Lookup: Same lookup for CCOc1cncc(-c2ccc(C(C)N3CCN(c4ccc(C(=O)NS(=O)(=O)C(C)(C)C)cc4)CC3)cc2)c1 (stereo not drawn) [Compound B2L098-01] , please.
Found: 3.9

Lookup: Then CCOc1cccc(-c2ccc(CN3CCN(c4ccc(C(=O)NS(=O)(=O)c5ccc(NCCSc6ccccc6)c(C(F)(F)F)c5)cc4)CC3)cc2C)c1 [Compound B2R047-01] ?
Found: 6.6

Lookup: Please give the result for CCOc1cccc(-c2ccc(CN3CCN(c4ccc(C(=O)NS(=O)(=O)CCC(F)(F)F)nn4)CC3)c(OC)c2)c1 [Compound B2N079-01] too.
Found: 0.0

Lookup: Field entry: CCOc1cccc(-c2ccccc2CCC(=O)N2CCN(c3ccc(C(=O)NS(=O)(=O)c4ccc(NCCSc5ccccc5)c(C(F)(F)F)c4)cc3)CC2)c1 [Compound B2R033-01]
Found: 3.6

Lookup: Follow-up entry: CCOc1cccc(-c2ccc(C(=O)N3CCN(c4ccc(C(=O)NS(=O)(=O)CCC(F)(F)F)nn4)CC3)cc2C)c1 [Compound B2N003-01]
Found: 0.0

Lookup: Request: CCOc1cncc(-c2ccc(CN3CCN(c4ccc(C(=O)NS(=O)(=O)c5ccc(NCCSc6ccccc6)c(C(F)(F)F)c5)cc4)CC3)cc2F)c1 [Compound B2R052-01]
Found: 0.0

Lookup: Then CCOc1cncc(C#Cc2cncc(C(=O)N3CCN(c4ccc(C(=O)NS(=O)(=O)c5ccc(NCCSc6ccccc6)c(C(F)(F)F)c5)nn4)CC3)c2)c1 [Compound B2R010-01] ?
Found: 0.0

Lookup: Would you mind doing CCOc1cncc(-c2ccc(C(=O)N3CCN(c4ccc(C(=O)NS(=O)(=O)CCC(F)(F)F)cc4)CC3)cc2F)c1 [Compound B2N028-01] as well?
Found: −0.7

Lookup: Entry CCOc1cccc(-c2csc(CN3CCN(c4ccc(C(=O)NS(=O)(=O)c5ccc(NCCSc6ccccc6)c(C(F)(F)F)c5)nn4)CC3)c2)c1 [Compound B2R093-01] please
Found: 56.5

Lookup: Entry to check: CCOc1cccc(-c2ccccc2CCC(=O)N2CCN(c3ccc(C(=O)NS(=O)(=O)CCC(F)(F)F)nn3)CC2)c1 [Compound B2N011-01]
Found: 0.0

Lookup: Now consider CCOc1cncc(-c2ccc(CN3CCN(c4ccc(C(=O)NS(=O)(=O)CCC(F)(F)F)nn4)CC3)cc2C)c1 [Compound B2N074-01] and answer again.
Found: 0.0

###

# TEST_TARGET: Bcl-2 protein (Recombinant Human Bcl-2 Protein) (Homo sapiens, UniProt P10415)
# Construct: purchased Novus Biologicals NBP2-34889
# Sequence (P10415 whole entry): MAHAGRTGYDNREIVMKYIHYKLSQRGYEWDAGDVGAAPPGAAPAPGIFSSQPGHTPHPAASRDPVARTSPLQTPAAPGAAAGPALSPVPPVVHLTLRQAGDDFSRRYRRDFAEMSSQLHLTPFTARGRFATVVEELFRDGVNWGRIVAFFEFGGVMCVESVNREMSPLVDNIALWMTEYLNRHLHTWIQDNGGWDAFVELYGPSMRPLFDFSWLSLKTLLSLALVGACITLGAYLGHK
# ASSAY_SUMMARY: AS-MS evaluation of binding of the Example 4 mixture library (1200 compounds/well) to Bcl-2, ASMS ratio (%)
# DETAILS: replicate n = 1; mixture library; value belongs to the MS peak assigned to the compound
METRIC_NAME: ASMS ratio (%) n = 1

Lookup: Give recorded ASMS ratio (%) n = 1 with Bcl-2 protein (Recombinant Human Bcl-2 Protein) (Homo sapiens, UniProt P10415) for the following compound: `CCOc1cccc(-c2cc(CN3CCN(c4ccc(C(=O)NS(=O)(=O)CC56CC7CC(CC(C7)C5)C6)nn4)CC3)cc(OC(F)(F)F)c2)c1`
Found: 10.5%

Lookup: Also `CCOc1cncc(C#Cc2cncc(C(=O)N3CCN(c4ccc(C(=O)NS(=O)(=O)C(C)(C)C)nn4)CC3)c2)c1` ?
Found: 0.0%

Lookup: Next record, please: `CCOc1cncc(-c2ccc(CN3CCN(c4ccc(C(=O)NS(C)(=O)=O)nn4)CC3)cc2F)c1`
Found: 0.0%

Lookup: Moving on to `CCOc1cncc(-c2cc(CN3CCN(c4ccc(C(=O)NS(=O)(=O)C(C)(C)C)cc4)CC3)cc(OC(F)(F)F)c2)c1`
Found: 0.0%

Lookup: Cool, now `CCOc1cccc(C#Cc2cc(C(=O)N3CCN(c4ccc(C(=O)NS(C)(=O)=O)cc4)CC3)cc(C(F)(F)F)c2)c1`
Found: 0.0%

Lookup: Another: `CCOc1cccc(-c2csc(CN3CCN(c4ccc(C(=O)NS(C)(=O)=O)cc4)CC3)c2)c1`
Found: 0.0%

Lookup: // next record CCOc1cncc(-c2ccc(C(C)N3CCN(c4ccc(C(=O)NS(C)(=O)=O)cc4)CC3)cc2)c1 (stereo not shown)
Found: 0.0%

Lookup: Same lookup for `CCOc1cccc(C#Cc2cc(C(=O)N3CCN(c4ccc(C(=O)NS(=O)(=O)C(C)(C)C)cc4)CC3)cc(C(F)(F)F)c2)c1` , please.
Found: 0.0%

Lookup: And `CCOc1cncc(C#Cc2cc(C(=O)N3CCN(c4ccc(C(=O)NS(C)(=O)=O)cc4)CC3)cc(C(F)(F)F)c2)c1` ?
Found: 0.0%

Lookup: // same read-out, input: `CCOc1cccc(-c2ccc(CN3CCN(c4ccc(C(=O)NS(C)(=O)=O)cc4)CC3)cc2C)c1`
Found: 0.8%

Lookup: What do you get for `CCOc1cncc(-c2cc(C(=O)N3CCN(c4ccc(C(=O)NS(C)(=O)=O)cc4)CC3)cc(C(F)(F)F)c2)c1` ?
Found: 0.0%

Lookup: Another compound to check: CCOc1cccc(-c2ccc(C(C)N3CCN(c4ccc(C(=O)NS(C)(=O)=O)cc4)CC3)cc2)c1 (stereo not shown)
Found: 0.8%

Lookup: `CCOc1cccc(-c2ccc(C(=O)N3CCN(c4ccc(C(=O)NS(=O)(=O)C(C)(C)C)nn4)CC3)cc2F)c1` ?
Found: 0.0%

###

# TEST_TARGET: Bcl-2 protein (Recombinant Human Bcl-2 Protein) (Homo sapiens, UniProt P10415)
# Construct: purchased Novus Biologicals NBP2-34889
# ASSAY_SUMMARY: AS-MS evaluation of binding of the Example 4 mixture library (1200 compounds/well) to Bcl-2, ASMS ratio (%)
# DETAILS: AS-MS, Example 4 mixture library, Bcl-2, replicate n = 2
For each of the compounds below, state its ASMS ratio (%) n = 2.
Write the figure, then the unit, nothing else.

Lookup: ASMS ratio (%) n = 2 lookup needed for `CCOc1cncc(-c2ccccc2CN2CCN(c3ccc(C(=O)NS(=O)(=O)CCC(F)(F)F)nn3)CC2)c1` , thanks.
Found: 0.1%

Lookup: Also `CCOc1cncc(-c2cnn(-c3cc(C(=O)N4CCN(c5ccc(C(=O)NS(=O)(=O)CCC(F)(F)F)nn5)CC4)cc(C(F)(F)F)c3)c2)c1` ?
Found: 0.0%

Lookup: What about this compound? `CCOc1cncc(-c2cc(C(=O)N3CCN(c4ccc(C(=O)NS(=O)(=O)c5ccc(NCCSc6ccccc6)c(C(F)(F)F)c5)cc4)CC3)cc(C(C)(C)C)c2)c1`
Found: −6.0%

Lookup: Query `CCOc1cccc(-c2cnn(-c3cc(C(=O)N4CCN(c5ccc(C(=O)NS(=O)(=O)c6ccc(NCCSc7ccccc7)c(C(F)(F)F)c6)nn5)CC4)cc(C(F)(F)F)c3)c2)c1` next
Found: 0.0%

Lookup: Proceed to `CCOc1cncc(-c2cc(CN3CCN(c4ccc(C(=O)NS(=O)(=O)c5ccc(NCCSc6ccccc6)c(C(F)(F)F)c5)cc4)CC3)cc(OCC)c2)c1`
Found: −63.9%

###

Kindly state ASMS ratio (%) n = 2 for each of the entries shown.
# TEST_TARGET: Bcl-2 protein (Recombinant Human Bcl-2 Protein) (Homo sapiens)
# Construct: purchased Novus Biologicals NBP2-34889
# ASSAY_SUMMARY: AS-MS evaluation of binding of the Example 4 mixture library (1200 compounds/well) to Bcl-2, ASMS ratio (%)
# DETAILS: AS-MS, Example 4 mixture library, Bcl-2, replicate n = 2
Field format: number, assumed %, no unit text.

Lookup: Look at this molecule and give its reported ASMS ratio (%) n = 2. `CCOc1cncc(C#Cc2cncc(C(=O)N3CCN(c4ccc(C(=O)NS(=O)(=O)c5ccc(NCCSc6ccccc6)c(C(F)(F)F)c5)nn4)CC3)c2)c1`
Found: 0.0

Lookup: Same again, this time with `CCOc1cncc(-c2ccccc2CN2CCN(c3ccc(C(=O)NS(=O)(=O)c4ccc(NCCSc5ccccc5)c(C(F)(F)F)c4)cc3)CC2)c1`
Found: 0.0

Lookup: Here is the next molecule: `CCOc1cncc(C#Cc2ccccc2CN2CCN(c3ccc(C(=O)NS(=O)(=O)CCC(F)(F)F)cc3)CC2)c1`
Found: 0.0

Lookup: // same read-out, input: `CCOc1cccc(-c2ccccc2CCC(=O)N2CCN(c3ccc(C(=O)NS(=O)(=O)c4ccc(NCCSc5ccccc5)c(C(F)(F)F)c4)nn3)CC2)c1`
Found: −1.3

Lookup: What do you get for `CCOc1cncc(-c2csc(CN3CCN(c4ccc(C(=O)NS(=O)(=O)c5ccc(NCCSc6ccccc6)c(C(F)(F)F)c5)nn4)CC3)c2)c1` ?
Found: 11.9

Lookup: And `CCOc1cncc(-c2ccc(CN3CCN(c4ccc(C(=O)NS(=O)(=O)CCC(F)(F)F)cc4)CC3)c(OC)c2)c1` ?
Found: 0.0

Lookup: Follow-up item: `CCOc1cccc(C#Cc2ccccc2CN2CCN(c3ccc(C(=O)NS(=O)(=O)CCC(F)(F)F)nn3)CC2)c1`
Found: 0.0

Lookup: Same question for `CCOc1cccc(-c2cc(CN3CCN(c4ccc(C(=O)NS(=O)(=O)CCC(F)(F)F)nn4)CC3)cc(OCC)c2)c1` please.
Found: 0.0

Lookup: Also check `CCOc1cncc(-c2cc(CN3CCN(c4ccc(C(=O)NS(=O)(=O)CCC(F)(F)F)nn4)CC3)cc(C(F)(F)F)c2)c1`
Found: 0.0

Lookup: Next record, please: `CCOc1cncc(-c2ccc(CN3CCN(c4ccc(C(=O)NS(=O)(=O)CCC(F)(F)F)nn4)CC3)cc2F)c1`
Found: 0.0

Lookup: Moving on to `CCOc1cncc(-c2cnn(-c3cc(C(=O)N4CCN(c5ccc(C(=O)NS(=O)(=O)c6ccc(NCCSc7ccccc7)c(C(F)(F)F)c6)cc5)CC4)cc(C(F)(F)F)c3)c2)c1`
Found: −4.1

Lookup: Quick one: `CCOc1cncc(-c2ccc(CN3CCN(c4ccc(C(=O)NS(=O)(=O)CCC(F)(F)F)nn4)CC3)c3ccccc23)c1`
Found: 0.0
